system: MCF7; assay: Antiproliferative activity against human MCF7 cells assessed as reduction in cell growth incubated for 24 hrs by MTT assay; assay type: functional, cell-based; conditions: MCF7, 24 h
pIC50: −log10 of the molar value.
readout label: pIC50

sample smiles	number
O=C(NS(=O)(=O)c1cccc([N+](=O)[O-])c1)n1ccc2cccnc21	5.33

----------
system: HT-29; experiment: Antiproliferative activity against human HT-29 cells assessed as reduction in cell growth at 10 uM incubated for 24 hrs by MTT assay relative to control; type: functional
readout label: inhibition at 10 µM

sample smiles	result
O=C(NS(=O)(=O)c1ccc2ccccc2c1)n1ccc2cccnc21	16.2%
Cc1ccc(S(=O)(=O)NC(=O)n2ccc3cc(Br)cnc32)cc1	82.4%
Cc1ccc(S(=O)(=O)NC(=O)n2ccc3c(N(C)C)ccnc32)cc1	21.4%
O=C(NS(=O)(=O)c1cccc([N+](=O)[O-])c1)n1ccc2cccnc21	18.9%
O=C(NS(=O)(=O)c1ccccc1)n1ccc2c(Cl)ccnc21	47.6%
O=C(NS(=O)(=O)c1ccc(Cl)cc1)n1ccc2cccnc21	54.4%
COc1cccc2c1C(=O)c1c(O)c3c(c(O)c1C2=O)C[C@@](O)(C(=O)CO)C[C@@H]3O[C@H]1C[C@H](N)[C@H](O)[C@H](C)O1	94.3%
O=C(NS(=O)(=O)c1ccc2ccccc2c1)n1ccc2c(Cl)ccnc21	58.2%
CN(C)c1ccnc2c1ccn2C(=O)NS(=O)(=O)c1ccccc1	17.6%
Cc1ccc(S(=O)(=O)NC(=O)n2ccc3cccnc32)cc1	33.4%
O=C(NS(=O)(=O)c1ccccc1)n1ccc2cc(Br)cnc21	14.6%
O=C(NS(=O)(=O)c1ccccc1)n1ccc2cccnc21	23.6%
O=C(NS(=O)(=O)c1cccc([N+](=O)[O-])c1)n1ccc2cc(Br)cnc21	58.5%
O=C(NS(=O)(=O)c1ccc2ccccc2c1)n1ccc2cc(Br)cnc21	60.1%

Every entry's value here was drawn from ChEMBL document CHEMBL4814002.
